experiment: Solubilities of salts in three solvents (Example 2); conditions: 50 mM ammonium formate, 20 °C, pH 7.9, aqueous buffer, thermodynamic from solid
RESULT TYPE: solubility at 3 min
Field: value (include unit after the number)

Return reported solubility at 3 min; argument: Cl.O=C1CN2Cc3c(ccc(Cl)c3Cl)N=C2N1
11 µg/mL

Return reported solubility at 3 min; argument: Br.O=C1NC2=Nc3ccc(Cl)c(Cl)c3CN2C12CC2
1 µg/mL

Return reported solubility at 3 min; argument: CC(C)(C(=O)[O-])N1Cc2c(ccc(Cl)c2Cl)N=C1N.[Na+]
16 µg/mL

Return reported solubility at 3 min; argument: Br.CC1(C)C(=O)NC2=Nc3ccc(Cl)cc3CN21
4 µg/mL

These data points were gathered from patent US8304420B2.
